Measured polymerase ribozyme fitness (log ratio) accompanies every entry in the list below.
B1: TPR 5TU (parent)
chain: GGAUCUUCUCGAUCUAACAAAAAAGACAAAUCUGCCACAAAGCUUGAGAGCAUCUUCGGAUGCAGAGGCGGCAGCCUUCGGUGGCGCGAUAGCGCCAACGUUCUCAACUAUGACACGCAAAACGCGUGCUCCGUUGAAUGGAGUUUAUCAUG

Variants of: B1
Assay: polymerase ribozyme fitness, log enrichment relative to wild type (log ratio); higher = more active; in vitro selection for triplet polymerase activity
Fewer inactive variants are shown than the library holds.
observable: polymerase ribozyme fitness (log ratio)

variant-designation	relation-qualifier	value-observed
A41C G83U G124U	=	-0.893
A21U A119U G124U	=	-0.526
A98G G128A	=	-3.02
A20G A24U U111A A142U G143U	≤	-4.2
A41G G48A C87A U148C	≤	-4.2
A22U A97G	=	0.0508
U55G G84U A98C U151C	≤	-4.2
U56A G83C C87U A89C C108U U144C	≤	-4.2
G50A G58C	=	-1.06
A26G A52C G59C A64C	≤	-4.2
A17C A21U G25U G84A	=	-2.95
U6G A23U A73G C76A A98G C105G A113C A119G	≤	-4.2
G83U U102C	=	-1.16
C87U A122G	=	-1.83
G62U U77A G86U C99G	≤	-4.2
G58C C79U C85G G141U	≤	-4.2
U9G G74A G84A A107G	≤	-4.2

Values were extracted from the RNAGym collection of RNA variant scans (doi:10.1073/pnas.2313332121).
